System: C. neoformans
protocol-summary: Sensititre YeastOne Y09 AST drug combination assay
Assay type: cell-based, Cryptococcus neoformans
experimental-conditions: 6G-318S at 0.16 ug/ml, C. neoformans H99
Numbered stars: 1 amine (or outer) side, 2 acyl side, 3 side chain; on linkers, the order of the positions; unused ones are H or OH. Bridge positions count the residues as written; N and C are the ends. Square brackets hold non-standard residues; d marks the D form. Peptide text beside a SMILES is read from it. * marks the point of attachment. hTyr(3S-OH,4S-OH,3'-OSO3H) = N[C@H](C(=O)O)[C@H](O)[C@@H](O)c1ccc(O)c(OS(=O)(=O)O)c1; Orn(4R-OH,5R-OH) = O=C([C@H](C[C@@H](O)[C@@H](O)N[*:3])N[*:1])[*:2]; Pro(3S-OH,4S-Me) = C[C@H]1CN[C@H](C(=O)O)[C@H]1O; X1 = CCCCCOc1ccc(-c2cc(-c3ccc(C(=O)*)cc3)no2)cc1; Gln(3R-OH) = NC(=O)C[C@@H](O)[C@H](N)C(=O)O; Hyp = O=C(O)[C@@H]1C[C@@H](O)CN1
outcome-measure: reduction of MIC of known antifungal on addition of 6G-318S

| compound | obs-value |
| --- | --- |
| OC(Cn1cncn1)(Cn1cncn1)c1ccc(F)cc1F [FZ, fluconazole] | did not change |
| CCCCCOc1ccc(-c2cc(-c3ccc(C(=O)N[C@H]4C[C@@H](O)[C@@H](O)NC(=O)[C@@H]5[C@@H](O)[C@@H](C)CN5C(=O)[C@H]([C@H](O)CC(N)=O)NC(=O)[C@H]([C@H](O)[C@@H](O)c5ccc(O)c(OS(=O)(=O)O)c5)NC(=O)[C@@H]5C[C@@H](O)CN5C(=O)[C@H]([C@@H](C)O)NC4=O)cc3)no2)cc1 [MF, Micafungin] (X1-[Orn(4R-OH,5R-OH)]T[Hyp][hTyr(3S-OH,4S-OH,3'-OSO3H)][Gln(3R-OH)][Pro(3S-OH,4S-Me)]; lactam 1-C) | did not change |
| CC[C@@H]([C@H](C)O)n1ncn(-c2ccc(N3CCN(c4ccc(OC[C@@H]5CO[C@@](Cn6cncn6)(c6ccc(F)cc6F)C5)cc4)CC3)cc2)c1=O [PZ, Posaconazole] | did not change |
